System: Brassica rapa subsp. chinensis
Assay: whole plant or invertebrate
Type: functional
Conditions: 72 h, read-out: GI
Description: Phytotoxicity against Brassica rapa subsp. chinensis assessed as growth inhibition of radicle at 100 ppm treated to seeds after 3 days

COMPOUND | UNIT | inhibition of growth at 100 ppm
CCCNC(=O)/C=C/c1ccc(Cl)cc1Cl | % | 26
CCc1ccccc1NC(=O)/C=C/c1ccccc1 | % | 21
CC(C)=CCCC(C)CCOC(=O)/C=C/c1ccc(Cl)cc1Cl (centres undefined) | % | 0
CCCCNC(=O)/C=C/c1ccc(C(C)C)cc1 [N-BUTYL-3-(4-ISOPROPYLPHENYL)ACRYLAMIDE] | % | 51
CC(C)CNC(=O)/C=C/c1ccc(Cl)cc1Cl | % | 43
CC(C)c1ccc(/C=C/C(=O)OCCc2ccccc2)cc1 [PHENETHYL 3-(4-ISOPROPYLPHENYL)ACRYLATE] | % | 0
O=C(/C=C/c1ccc(Cl)cc1)OCCOc1ccccc1 | % | 0
Cc1ccc(C(C)C)c(OC(=O)/C=C/c2ccc(Cl)cc2)c1 | % | 24
Cc1ccc(NC(=O)/C=C/c2ccccc2)c(C)c1 | % | 0
CC(C)CNC(=O)/C=C/c1ccccc1 [N-ISOBUTYLCINNAMAMIDE] | % | 78
CCCOC(=O)/C=C/c1ccc(C(C)C)cc1 [PROPYL 3-(4-ISOPROPYLPHENYL)ACRYLATE] | % | 5
CC(C)(C)NC(=O)/C=C/c1ccc(Cl)cc1Cl | % | 26
Cc1ccc(OC(=O)/C=C/c2ccc(C(C)C)cc2)c(C(C)C)c1 | % | 28
CC(C)(C)NC(=O)/C=C/c1ccc(Cl)cc1 | % | 55
CCCCCCCCCCCCNC(=O)/C=C/c1ccccc1 [N-DODECYLCINNAMAMIDE] | % | 32
CC(C)COC(=O)/C=C/c1ccccc1 [ISOBUTYL CINNAMATE] | % | 0
CC(C)=CCC/C(C)=C/COC(=O)/C=C/c1ccc(Cl)cc1 | % | 48
CCCCCCCCCCCCCCCCNC(=O)/C=C/c1ccccc1 [N-HEXADECYLCINNAMAMIDE] | % | 75
CCCOC(=O)/C=C/c1ccccc1 [PROPYL CINNAMATE] | % | 7
CC(C)OC(=O)/C=C/c1ccccc1 [ISOPROPYL CINNAMATE] | % | 2
CCOC(=O)/C=C/c1ccc(Cl)cc1 [ETHYL 3-(4-CHLOROPHENYL)ACRYLATE] | % | 47
C=CCc1ccc(OC(=O)/C=C/c2ccc(Cl)cc2Cl)c(OC)c1 | % | 6
CCCCNC(=O)/C=C/c1ccc(Cl)cc1Cl [N-BUTYL-3-(2,4-DICHLOROPHENYL)ACRYLAMIDE] | % | 49
CCc1cccc(NC(=O)/C=C/c2ccccc2)c1 | % | 66
CCCCCCCCNC(=O)/C=C/c1ccccc1 [N-OCTYLCINNAMAMIDE] | % | 42
CC(C)NC(=O)/C=C/c1ccc(C(C)C)cc1 | % | 62
Cc1ccccc1NC(=O)/C=C/c1ccccc1 [N-O-TOLYLCINNAMAMIDE] | % | 39
CCOC(=O)/C=C/c1ccccc1 [ETHYL CINNAMATE] | % | 0
CCC(C)NC(=O)/C=C/c1ccc(C(C)C)cc1 (centres undefined) | % | 46
CC(C)OC(=O)/C=C/c1ccc(Cl)cc1 [ISOPROPYL 3-(4-CHLOROPHENYL)ACRYLATE] | % | 0
Cc1ccc(NC(=O)/C=C/c2ccccc2)cc1 [N-P-TOLYLCINNAMAMIDE] | % | 57
O=C(/C=C/c1ccccc1)NCc1ccc(Cl)cc1 [N-(4-CHLOROBENZYL)CINNAMAMIDE] | % | 44
CC(C)c1ccc(/C=C/C(=O)OCCOc2ccccc2)cc1 | % | 0
CCOC(=O)/C=C/c1ccc(C(C)C)cc1 [ETHYL 3-(4-ISOPROPYLPHENYL)ACRYLATE] | % | 0

Measured values drawn from ChEMBL document CHEMBL3046649 for this set.
